Measured values drawn from PubChem BioAssay (NCI) for this set.

Answer each item with its documented TGI.
- Tested on: SF-268 CNS
- EXPERIMENT: NCI tumour cell line growth inhibition, 48 h
# unit: µM | format: bare number

// TGI lookup, compound = N#CC1=C(S)N(C2OC(CO)C(O)C(O)C2O)C(c2ccccc2)=CC1c1cccs1 (configuration not stated) , result: 63.8

Value of TGI reported for the compound `COc1ncc(C#CC(=O)c2ccccc2)c(OC)n1` is 26.4

Note to self: TGI recorded for `Cc1cc(C)c(O)c(CNCCCNCc2cc(C)cc(C)c2O)c1` was 21.2

So for `COc1ccccc1N1CCN(CCCOc2ccc(C(=O)/C=C3/C(=O)Nc4ccccc43)cc2)CC1` , the logged TGI turned out to be 47.3
